# Test Details: NCI Yeast Anticancer Drug Screen. Data for the bub3 strain (AID 167)
# Condition Context: S. cerevisiae bub3 mutant strain, at 50.0 µM, stronger effect = higher value
About 79,000 compounds went through this panel and 15% of them were active in at least one assay; those are over-represented in the sample as a whole. Where a SMILES comes first, the peptide text is derived from it. [ ]: non-standard residue; d: D form. The star is where a group is joined. Cbz = O=C(OCc1ccccc1)*; Nva = CCC[CH](N)C(=O)O
Label Condition met when growth inhibition is at or above 10%; otherwise label Condition not met.

| Compound | Assigned Class |
| --- | --- |
| O=C(NCCNCCCNC(=O)c1cc(-c2ccccc2)nc2ccccc12)c1cccc(OCc2ccccc2)c1OCc1ccccc1 | Condition met |
| COc1ccccc1/C=C1/Sc2scc(CC(=O)Nc3ccccc3)[n+]2C1=O | Condition not met |
| CCOC(=O)C(OCC1CC=CCC1)Sc1ccccc1 (configuration not stated) | Condition not met |
| C=CCCN=C(SC)SC | Condition not met |
| C[C@@]1(CO)O[C@H]1CCC#C[Si](C)(C)C | Condition not met |
| CCOC(=O)C1CC1c1c(C)c2cc3[nH]c(cc4nc(cc5nc(cc1[nH]2)C(C)=C5CCC(=O)OC)C(CCC(=O)OC)=C4C)c(C)c3C1CC1C(=O)OCC (configuration not stated) | Condition not met |
| O=C1C=C(c2ccccc2)CSC1 | Condition not met |
| CCCCOC(=O)COc1ccc(OC)cc1 | Condition not met |
| CCCC(NC(=O)OCc1ccccc1)C(=O)NC(C(=O)O)C(C)CC (configuration not stated) (Cbz-[Nva]-Ile-OH; configuration not given here) | Condition not met |
| O=C(COc1ccc(Cl)cc1Cl)Nc1ccc2ccccc2c1 | Condition met |
| c1ccc(B2Nc3ccccc3O2)cc1 | Condition met |
| O=C1C=CC(=O)C2C1C21C2CCCC(C2)C2CCCC1C2 (configuration not stated) | Condition not met |
| Nc1cnc2ccccc2c1 | Condition met |
| C/C(=C\CC1C(=O)N(c2ccccc2)N(c2ccccc2)C1=O)CO | Condition not met |
| Cc1cc(C)c(COCc2c(C)cc(C)cc2C)c(C)c1 | Condition not met |
| CCCCC(=O)c1cc2ccccc2c2ccccc12 | Condition met |
| CCSC(SCC)C(O)C(O)C(O)C(C)O (configuration not stated) | Condition not met |
| O=c1oc2ccc(Cl)cc2n1CN1CCOCC1 | Condition not met |
| COC(=O)CC(C)N(c1ccc(OC)cc1)S(=O)(=O)c1ccc(C)cc1 (configuration not stated) | Condition met |
| CC(=O)OC1CCC2(C)C(C1)CC(OC(C)=O)C1C2CC(OC(C)=O)C2(C)C(C(C)CC=C(c3ccccc3)c3ccccc3)CCC12 (configuration not stated) | Condition not met |
| CC(C)=CCC(C)c1ccccn1 (configuration not stated) | Condition met |
| CC(C)C(CN)(c1ccccc1)c1ccccc1 | Condition not met |
| CN(C)c1ccc(/C=C2\N=C(c3ccc([N+](=O)[O-])cc3)OC2=O)cc1 | Condition met |
| NC(=S)c1cccc(C(N)=S)n1 | Condition met |
| c1ccc2c3c(ccc2c1)Oc1ccc2ccccc2c1C3CCC1c2c(ccc3ccccc23)Oc2ccc3ccccc3c21 | Condition not met |
| C[N+]1(C)CC=C(N2CCOCC2)CC1 | Condition not met |
| NC(=O)C1N=NSC1NC(=O)c1ccc([N+](=O)[O-])cc1 (configuration not stated) | Condition not met |
| COc1ccccc1C(=O)N/N=C\c1c[nH]c2ccccc12 | Condition not met |
| Cc1ccc([Se](=C(C(=O)c2ccccc2)C(=O)c2ccccc2)c2ccc(C)cc2)cc1 | Condition not met |
| CCOC(=O)NC(=O)c1cn(CCCOC(=O)CCCCCCCCCCC(=O)OCCCn2cc(C(=O)NC(=O)OCC)c(=O)n(C)c2=O)c(=O)n(C)c1=O | Condition not met |
| CCCCCCn1cnc2c(=O)[nH]c(N)nc21 | Condition not met |
| C=NNC(=O)c1ccncc1 | Condition met |
